# system_tested: T1, 4H3939-AA
# T1 chain: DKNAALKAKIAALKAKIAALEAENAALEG
# assay_protocol: two-hybrid library CCmax;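 note: natural log of median RNA to DNA barcode read ratio; higher means stronger binding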
# assay_setup: mean of both orientations
Would you kindly list interaction score for each of these binders?
Answer with the value's number alone.

Inquiry: Identify measured interaction score associated with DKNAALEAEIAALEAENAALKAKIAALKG [4H3102-AA]
Reply text: -1.39

Inquiry: Identify measured interaction score associated with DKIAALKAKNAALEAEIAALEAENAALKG [4H2948-AA]
Reply text: -1.77

Inquiry: Identify measured interaction score associated with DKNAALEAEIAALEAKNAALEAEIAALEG [4H3121-AA]
Reply text: -1.9

Inquiry: Identify measured interaction score associated with DKIAALKAEIAALEAKNAALKAKIAALEG [4H2621-AA]
Reply text: -0.531

Inquiry: Identify measured interaction score associated with DKNAALKAEIAALEAEIAALEAKNAALEG [4H3591-AA]
Reply text: 1.03

Inquiry: Identify measured interaction score associated with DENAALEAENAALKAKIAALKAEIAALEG [4H1257-AA]
Reply text: -1.27

Inquiry: Identify measured interaction score associated with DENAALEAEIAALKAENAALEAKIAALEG [4H1109-AA]
Reply text: -1.76

Inquiry: Identify measured interaction score associated with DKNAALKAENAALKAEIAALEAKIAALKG [4H3782-AA]
Reply text: -0.413

Inquiry: Identify measured interaction score associated with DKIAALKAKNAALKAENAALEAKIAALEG [4H3029-AA]
Reply text: -1.98

Inquiry: Identify measured interaction score associated with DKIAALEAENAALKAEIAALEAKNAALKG [4H2248-AA]
Reply text: -1.4

Inquiry: Identify measured interaction score associated with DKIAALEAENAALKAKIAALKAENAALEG [4H2283-AA]
Reply text: -1.94

Inquiry: Identify measured interaction score associated with DKNAALEAKIAALKAENAALEAKIAALKG [4H3414-AA]
Reply text: -1.42

Inquiry: Identify measured interaction score associated with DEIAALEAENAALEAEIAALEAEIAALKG [4H130-AA]
Reply text: 1.29

Inquiry: Identify measured interaction score associated with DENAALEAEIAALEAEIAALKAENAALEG [4H1035-AA]
Reply text: 0.466
